Let's look at some compounds and their measured Percent Effect.
Target: Protein translocase subunit SecA (Escherichia coli (strain K12))
Test: Assay to Identify E. coli SecA ATPase Inhibitors
Format: functional
Parameters: scale not given: direction of the effect not stated beside the values
Details: 30 µM
Entries with a potency or affinity are not part of this list.
Only the number, expressed in %, is required.

COCC1CN(Cc2ccc(C)o2)Cc2cn(C)nc21 (stereo not given) : -1.58
CN(C)C(=O)CC1CC2(CCN(C(=O)N(C)C)CC2)Oc2ccccc21 (stereo not given) : -2.94
CSCCCN1CC[C@@H](NC(=O)c2cnccn2)[C@H](O)C1 : -3.48
CCCC1(CO)CCCN(c2ncccc2F)C1 (stereo not given) : -0.789
COc1cccc(CCC2CCCN(C(=O)c3n[nH]c4c3CCC4)C2)c1 (stereo not given) : -4.51

Query :: Give Protein translocase subunit SecA (Escherichia coli (strain K12)) Percent Effect for the following compound: CN(CCO)Cc1nnc(C2CCN(C3CCCCC3)CC2)n1C
Result :: -3.52

Query :: Give Protein translocase subunit SecA (Escherichia coli (strain K12)) Percent Effect for the following compound: Cc1nc(COC[C@]23COC[C@H]2CN(Cc2ccoc2)C3)cs1
Result :: -4.99

Query :: Give Protein translocase subunit SecA (Escherichia coli (strain K12)) Percent Effect for the following compound: O=C1NCCN1C1CCN(CCc2cccs2)CC1
Result :: -7

Query :: Give Protein translocase subunit SecA (Escherichia coli (strain K12)) Percent Effect for the following compound: CNC(=O)c1cccc(CNC(=O)C2CC(=O)N(CCN(C)C)C2)c1 (stereo not given)
Result :: -5.39

Query :: Give Protein translocase subunit SecA (Escherichia coli (strain K12)) Percent Effect for the following compound: CCCN1C(=O)CC(N2CCN(c3ccc(F)cc3)CC2)C1=O (stereo not given)
Result :: -0.321

FYI, the data here is from ChEMBL document CHEMBL3988442.
